- Tested on: uninfected MT2 cells
- ASSAY INFO: Compound cytotoxicity, XTT-based colorimetric assay
- Assay type: cell-based
- CONDITIONS: day 4, XTT
READOUT KIND: CC50

These solved cases illustrate the format of a correct answer.
- COMPOUND: "O=C(Cn1nc(C(F)F)c2c1C(F)(F)[C@@H]1C[C@H]21)N[C@@H](Cc1cc(F)cc(F)c1)c1nc2cc(-c3ccccc3F)ccc2c(=O)n1-c1ccc(Cl)c2c(NS(=O)(=O)C3CC3)nn(CC(F)F)c12 (atropisomer, axis not shown; (aR)) [Example 115]"
  READOUT KIND: "CC50"
  VALUE OBSERVED: "> 10000 nM"
- COMPOUND: "Cn1nc(NS(C)(=O)=O)c2c(Cl)ccc(-n3c([C@H](Cc4cc(F)cc(F)c4)NC(=O)Cn4nc(C(F)F)c5c4C(F)(F)[C@@H]4C[C@H]54)nc4cc(-c5ccccc5F)ccc4c3=O)c21 (single isomer, unassigned) [Example 5]"
  READOUT KIND: "CC50"
  VALUE OBSERVED: "> 1000 nM"
- COMPOUND: "Cn1nc(NS(C)(=O)=O)c2c(Cl)ccc(-n3c([C@H](Cc4cc(F)cc(F)c4)NC(=O)Cn4ccc(C5CC5)n4)nc4cc(-c5ccccc5F)ccc4c3=O)c21 (single isomer, unassigned) [Example 4]"
  READOUT KIND: "CC50"
  VALUE OBSERVED: "> 1000 nM"
- COMPOUND: "CC(C(=O)N[C@@H](Cc1cc(F)cc(F)c1)c1nc2cc(-c3ccccc3F)ccc2c(=O)n1-c1ccc(Cl)c2c(NS(=O)(=O)C3CC3)nn(CC(F)F)c12)n1ccc(C2CC2)n1 (single isomer, unassigned) [Example 138]"
  READOUT KIND: "CC50"
  VALUE OBSERVED: "> 500 nM"
- COMPOUND: "O=C(Cn1nc(C(F)F)c2c1C(F)(F)[C@@H]1C[C@H]21)N[C@@H](Cc1cc(F)cc(F)c1)c1nc2cc(-c3ccccc3F)ccc2c(=O)n1-c1ccc(Cl)c2c(NS(=O)(=O)C3CC3)nn(CC(F)F)c12 (atropisomer, axis not shown; (aR)) [Example 8]"
  READOUT KIND: "CC50"
  VALUE OBSERVED: "> 1000 nM"

Query: What does the record list as CC50 for Cn1nc(NS(C)(=O)=O)c2c(Cl)ccc(-n3c([C@H](Cc4cc(F)cc(F)c4)NC(=O)Cn4nc(C(F)F)c5c4C(F)(F)[C@@H]4C[C@H]54)nc4cc(-c5ccccc5F)ccc4c3=O)c21 (single isomer, unassigned) [Example 6] ?
Reply: > 1000 nM

###

- System: recombinant NL4-3 virus (nef section replaced with Renilla luciferase gene) in MT-2 cells
- ASSAY INFO: HIV cell culture assay (antiviral activity, luciferase readout)
- Format: cell-based
- CONDITIONS: Renilla, NL43, MT-2 cells infected for 4-5 days with recombinant NL4-3 Renilla luciferase virus, serial dilutions of compound
READOUT KIND: EC50 (nM)
Give the value, in units of nM, as a plain number.

- COMPOUND: "COc1ccccc1-c1ccc2c(=O)n(-c3ccc(Cl)c4c(NS(C)(=O)=O)nn(C)c34)c([C@H](Cc3cc(F)cc(F)c3)NC(=O)Cn3nc(C(F)F)c4c3C(F)(F)[C@@H]3C[C@H]43)nc2c1"
  ASSAYED TARGET: "recombinant NL4-3 virus (nef section replaced with Renilla luciferase gene) in MT-2 cells"
  EC50, nM: 2.4
- COMPOUND: "COc1cc(C)nc(-c2ccc3c(=O)n(-c4ccc(Cl)c5c(NS(C)(=O)=O)nn(C)c45)c([C@H](Cc4cc(F)cc(F)c4)NC(=O)Cn4nc(C(F)F)c5c4C(F)(F)[C@@H]4C[C@H]54)nc3c2)n1 (atropisomer, axis not shown; (aR))"
  ASSAYED TARGET: "recombinant NL4-3 virus (nef section replaced with Renilla luciferase gene) in MT-2 cells"
  EC50, nM: 0.11
- COMPOUND: "Cn1nc(NS(C)(=O)=O)c2c(Cl)ccc(-n3c([C@H](Cc4cc(F)cc(F)c4)NC(=O)Cn4nc(C(F)F)c5c4C(F)(F)[C@@H]4C[C@H]54)nc4cc(-c5cccc(F)c5CO)ccc4c3=O)c21 (atropisomer, axis not shown; (aR))"
  ASSAYED TARGET: "recombinant NL4-3 virus (nef section replaced with Renilla luciferase gene) in MT-2 cells"
  EC50, nM: 0.12

Turning now to a further compound:
Query: What does the record list as EC50 for Cc1cc(C)nc(-c2ccc3c(=O)n(-c4ccc(Cl)c5c(NS(C)(=O)=O)nn(CC(F)(F)F)c45)c([C@H](Cc4cc(F)cc(F)c4)NC(=O)Cn4nc(C(F)F)c5c4C(F)(F)[C@@H]4C[C@H]54)nc3c2)n1 ?
Reply: 0.096

###

- ASSAY INFO: Compound cytotoxicity, XTT-based colorimetric assay
- Format: cell-based
- CONDITIONS: human, uninfected MT2 cells, day 4, XTT
READOUT KIND: CC50 at 4 day

- COMPOUND: "Cn1nc(NS(C)(=O)=O)c2c(Cl)ccc(-n3c([C@H](Cc4cc(F)cc(F)c4)NC(=O)Cn4nc(C(F)F)c5c4C(F)(F)[C@@H]4C[C@H]54)nc4cc(-c5ccc(C(C)(C)C)cc5)ccc4c3=O)c21 [Example 192]"
  READOUT KIND: "CC50 at 4 day"
  VALUE OBSERVED: "> 1000 nM"
- COMPOUND: "O=C(Cn1ccc(C2CC2)n1)N[C@@H](Cc1cc(F)cc(F)c1)c1nc2cc(-c3ccccc3)ccc2c(=O)n1-c1ccc(S(=O)(=O)N2CCOCC2)cc1 [Example 144]"
  READOUT KIND: "CC50 at 4 day"
  VALUE OBSERVED: "> 500 nM"

Turning now to a further compound:
Query: What does the record list as CC50 at 4 day for O=C(Cn1nc(C(F)F)cc1C(F)F)N[C@@H](Cc1cc(F)cc(F)c1)c1nc2cc(-c3ccccn3)ccc2c(=O)n1-c1ccc(Cl)c2c(NS(=O)(=O)C3CC3)nn(CC(F)F)c12 [Example 190] ?
Reply: > 500 nM

###

- System: recombinant NL4-3 virus (nef section replaced with Renilla luciferase gene) in MT-2 cells
- ASSAY INFO: HIV cell culture assay (antiviral activity, luciferase readout)
- Assay type: cell-based
- CONDITIONS: Renilla, NL43, MT-2 cells infected for 4-5 days with recombinant NL4-3 Renilla luciferase virus, serial dilutions of compound
pEC50: −log10 of the molar value.
Decide using pEC50: a value greater than or equal to 10 is 1 (yes), a smaller one is 0 (no).

Query: Can Cn1nc(NS(C)(=O)=O)c2c(Cl)ccc(-n3c([C@H](Cc4cc(F)cc(F)c4)NC(=O)Cn4nc(C(F)F)c5c4C(F)(F)[C@@H]4C[C@H]54)nc4cc(-c5ccc(Cl)cc5Cl)ccc4c3=O)c21 (atropisomer, axis not shown; (aR)) be said to have pEC50 at or above 10?
Reply: 0 (no)

Query: Can O=C(Cn1ccc(C2CC2)n1)N[C@@H](Cc1cc(F)cc(F)c1)c1nc2cc(-c3cccc(-c4ccccc4)c3)ccc2c(=O)n1-c1ccc(S(=O)(=O)N2CCOCC2)cc1 be said to have pEC50 at or above 10?
Reply: 0 (no)

###

Reported CC50 at 4 day values for the following compounds.
- ASSAY INFO: Compound cytotoxicity, XTT-based colorimetric assay
- Type: cell-based
- CONDITIONS: human, uninfected MT2 cells, day 4, XTT

- COMPOUND: "Cn1nc(NS(C)(=O)=O)c2c(Cl)ccc(-n3c(C(Cc4cc(F)cc(F)c4)NC(=O)Cn4nc(C(F)F)c5c4C(F)(F)[C@@H]4C[C@H]54)nc4cc(-c5ccccc5F)ccc4c3=O)c21 (single isomer, unassigned)"
  READOUT KIND: "CC50 at 4 day"
  VALUE OBSERVED: "> 1000 nM"
- COMPOUND: "O=C(Cn1ccc(C2CC2)n1)N[C@@H](Cc1cc(F)cc(F)c1)c1nc2cc(-c3ccc(Cl)cc3Cl)ccc2c(=O)n1-c1ccc(S(=O)(=O)N2CCOCC2)cc1"
  READOUT KIND: "CC50 at 4 day"
  VALUE OBSERVED: "> 1000 nM"
- COMPOUND: "Cc1ccnc(-c2ccc3c(=O)n(-c4ccc(Cl)c5c(NS(C)(=O)=O)nn(CC(F)(F)F)c45)c([C@H](Cc4cc(F)cc(F)c4)NC(=O)Cn4nc(C(F)F)c5c4C(F)(F)[C@@H]4C[C@H]54)nc3c2)n1"
  READOUT KIND: "CC50 at 4 day"
  VALUE OBSERVED: "> 500 nM"
- COMPOUND: "Cn1nc(NS(C)(=O)=O)c2c(Cl)ccc(-n3c([C@H](Cc4cc(F)cc(F)c4)NC(=O)Cn4nc(C(F)F)c5c4C(F)(F)[C@@H]4C[C@H]54)nc4cc(-c5cccc(S(C)(=O)=O)c5)ccc4c3=O)c21 (atropisomer, axis not shown; (aR))"
  READOUT KIND: "CC50 at 4 day"
  VALUE OBSERVED: "> 1000 nM"
- COMPOUND: "Cn1nc(NS(C)(=O)=O)c2c(Cl)ccc(-n3c([C@H](Cc4cc(F)cc(F)c4)NC(=O)Cn4nc(C(F)F)c5c4C(F)(F)[C@@H]4C[C@H]54)nc4cc(-c5ccc(F)cc5F)ccc4c3=O)c21"
  READOUT KIND: "CC50 at 4 day"
  VALUE OBSERVED: "> 1000 nM"

Query: What does the record list as CC50 at 4 day for CC(C)c1ccc(-c2ccc3c(=O)n(-c4ccc(Cl)c5c(NS(C)(=O)=O)nn(C)c45)c([C@H](Cc4cc(F)cc(F)c4)NC(=O)Cn4nc(C(F)F)c5c4C(F)(F)[C@@H]4C[C@H]54)nc3c2)cc1 (atropisomer, axis not shown; (aR)) ?
Reply: > 1000 nM

Query: What does the record list as CC50 at 4 day for Cc1noc(C)c1-c1ccc2c(=O)n(-c3ccc(Cl)c4c(NS(C)(=O)=O)nn(C)c34)c([C@H](Cc3cc(F)cc(F)c3)NC(=O)Cn3nc(C(F)F)c4c3C(F)(F)[C@@H]3C[C@H]43)nc2c1 (atropisomer, axis not shown; (aR)) ?
Reply: > 1000 nM

Query: What does the record list as CC50 at 4 day for Cc1ccccc1-c1ccc2c(=O)n(-c3ccc(Cl)c4c(NS(C)(=O)=O)nn(C)c34)c([C@H](Cc3cc(F)cc(F)c3)NC(=O)Cn3nc(C(F)F)c4c3C(F)(F)[C@@H]3C[C@H]43)nc2c1 (atropisomer, axis not shown; (aR)) ?
Reply: > 1000 nM

Query: What does the record list as CC50 at 4 day for Cn1nc(NS(C)(=O)=O)c2c(Cl)ccc(-n3c([C@H](Cc4cc(F)cc(F)c4)NC(=O)Cn4nc(C(F)F)c5c4C(F)(F)[C@@H]4C[C@H]54)nc4cc(-c5c(F)cc(F)cc5F)ccc4c3=O)c21 ?
Reply: > 500 nM
